Tested on: Plasmodium falciparum
Experiment: NOVARTIS: Inhibition of Plasmodium falciparum W2 (drug-resistant) proliferation in erythrocyte-based infection assay
Type: functional, organism-based
Settings: Plasmodium falciparum, W2; read-out: EC50
pEC50: −log10 of the molar value.

- compound: "CCC1=NN2C(=N)/C(=C/c3cn(CCOc4cccc(C)c4)c4ccccc34)C(=O)N=C2S1"
  pEC50: "< 6.24"
- compound: "Cc1c(C(=O)N2CCN(c3cccc(Cl)c3)CC2)sc2ncnc(N(C)c3ccccc3)c12"
  pEC50: "< 6.04"
- compound: "COc1ccc(OC)c(-c2ccc(O)c(CNCCc3ccc(F)cc3)c2)c1"
  pEC50: "> 7.63"
- compound: "COc1ccc(/C=C(\\NC(=O)c2ccccc2Br)C(=O)N2CC3CC(C2)c2cccc(=O)n2C3)cc1OC (stereo not given)"
  pEC50: "< 5.90"
- compound: "COc1ccc(-n2c(SCC(=O)Nc3cc(Cl)ccc3OC)nnc2-c2ccccc2)cc1"
  pEC50: "> 8.97"
- compound: "Cc1ccn2c(NC(C)(C)CC(C)(C)C)c(-c3ccccc3OC(=O)c3ccc(Cl)cc3Cl)nc2c1"
  pEC50: "> 8.06"
- compound: "CCOCCCN(C(=O)C(F)(F)F)C(C(=O)NC1CCCCC1)c1ccncc1 (stereo not given)"
  pEC50: "< 5.79"
- compound: "CN(C)CCNC(=O)c1c[nH]c2ccc(S(=O)(=O)N3CCc4ccccc43)cc2c1=O"
  pEC50: "< 5.90"
- compound: "CCCCN(CC)C(=O)CSc1nc2ccccc2c(=O)n1Cc1ccco1"
  pEC50: "< 5.90"
- compound: "COc1ccccc1Cn1c(SCc2ccc(Cl)cc2)nc2ccc(Br)cc2c1=O"
  pEC50: "< 5.98"

###

Experiment: NOVARTIS: Cytotoxicity against human hepatocellular carcinoma cell line (Huh7)
Assay type: toxicity, cell-based, Huh-7
Settings: Huh7 cells (hepatocellular carcinoma cell line)

- compound: "CCCCNCCOCCOc1ccc(Br)cc1"
  CC50: "35.7 µM"
- compound: "CC(C)(C)OC(=O)NCC(=O)Oc1cc2oc(=O)cc(-c3ccccc3)c2cc1Cl"
  CC50: "> 10 µM"
- compound: "CC(NCCN1CCNCC1)c1cc(C(C)(C)C)cc2c1CCC2(C)C (centres undefined)"
  CC50: "6.72 µM"
- compound: "Cc1ccc(NC2=C(c3ccc(C(F)(F)F)cc3)C(=O)c3ccccc32)cc1F"
  CC50: "> 100 µM"
- compound: "Cc1ccc(C[n+]2cc(-c3ccc(F)cc3)n3c2CCC3)cc1"
  CC50: "> 100 µM"
- compound: "COc1ccc2c(c1)c(C)cc[n+]2Cc1ccccc1"
  CC50: "20.7 µM"
- compound: "O=C(c1cc2cc(Br)ccc2o1)N1CCc2c([nH]c3ccccc23)C1c1ccc(Cl)cc1 (centres undefined)"
  CC50: "> 100 µM"
- compound: "O=C(NC1CCN(CC(O)CN(Cc2ccccc2)S(=O)(=O)c2ccccc2)C1)c1ccco1 (centres undefined)"
  CC50: "> 10 µM"
- compound: "CCSC1=CC(=O)c2ccccc2C1=O"
  CC50: "5.17 µM"
- compound: "Oc1c(C(Nc2ccccn2)c2ccc(Br)cc2)ccc2cccnc12 (centres undefined)"
  CC50: "> 100 µM"
- compound: "CN(/C=C/C1=[N+](C)c2ccc(Cl)cc2C1(C)C)c1ccccc1"
  CC50: "> 92.8 µM"
- compound: "Cc1ccc2cc3c(N)c4cccc(C)c4nc3nc2c1"
  CC50: "> 10 µM"
- compound: "CCOc1ccc(OCc2nnc(S)n2N)cc1"
  CC50: "> 10 µM"
- compound: "CC(=O)Nc1ccc(S(=O)(=O)N(C)CC(=O)NN=Cc2ccncc2)cc1"
  CC50: "> 100 µM"
- compound: "CCOC(=O)c1[nH]c2ccccc2c1N=NN(C)C"
  CC50: "36.1 µM"
- compound: "CC(C)CC(=O)Nc1nnc(-c2ccc(Br)cc2)s1"
  CC50: "> 100 µM"
- compound: "CCCCCN(C(=O)c1cccc(F)c1)C(CC)c1nc2ccccc2c(=O)n1-c1ccc(Cl)cc1C (centres undefined)"
  CC50: "> 10 µM"
- compound: "Oc1ccc(-c2ccc3c(c2)OCO3)cc1CNC12CC3CC(CC(C3)C1)C2"
  CC50: "> 100 µM"
- compound: "CCCC1(CCC)NC(=S)N(c2ccc(C)c(C)c2)N1"
  CC50: "> 10 µM"
- compound: "CCOC(=O)C1=C(C)NC2=C(C(=O)CC(c3ccc(OC)cc3)C2)C1c1ccccc1F (centres undefined)"
  CC50: "> 100 µM"
- compound: "O=C(CC1SC(=Nc2ccccc2)NC1=O)Nc1cc(Cl)ccc1Cl (centres undefined)"
  CC50: "> 100 µM"
- compound: "Oc1c(CN2CCN(Cc3ccc4cccnc4c3O)CC2)ccc2cccnc12"
  CC50: "> 89.3 µM"
- compound: "CC(C)CN(CC(=O)Nc1cc(C(C)(C)C)nn1-c1ccccc1)C(=O)c1cc(Cl)cc(Cl)c1"
  CC50: "> 10 µM"
- compound: "Fc1ccc(-n2cc(-c3ccccc3)[n+]3c2SCC3)cc1"
  CC50: "> 10 µM"
- compound: "Cc1ccc(-c2cn3ccccc3[n+]2CC(=O)c2ccc(Cl)cc2)cc1[N+](=O)[O-]"
  CC50: "> 10 µM"
- compound: "COc1ccc(NC(=O)c2cc3cc(C4(O)CCN(CC5CC=CCC5)CC4)ccc3o2)cc1 (centres undefined)"
  CC50: "25.1 µM"
- compound: "NC(=N[N+](=O)[O-])Nc1ccc(NC(=O)Nc2ccc(Cl)cc2)cc1"
  CC50: "> 9.61 µM"
- compound: "Cc1ccc(NC(=O)CN2CCN(c3ccccn3)CC2)cc1F"
  CC50: "> 10 µM"
- compound: "O=[N+]([O-])c1cc(C(F)(F)F)ccc1N1CCCN(C(=S)Nc2cccc(C(F)(F)F)c2)CC1"
  CC50: "55 µM"

###

Assay: NOVARTIS: Cytotoxicity against human hepatocellular carcinoma cell line (Huh7)
Type: toxicity, cell-based, Huh-7
Conditions: Huh7 cells (hepatocellular carcinoma cell line)

- compound: "CC(=O)N1CC(=NNC(=O)C(C)Nc2c(C)cccc2C)c2ccccc21 (centres undefined)"
  CC50: "> 10 µM"
- compound: "Cc1cc(C)nc(Nc2nc(C)c3cc(C)c(C)cc3n2)n1"
  CC50: "> 100 µM"
- compound: "CCCCCCC(NC(=O)OCc1ccccc1)S(=O)(=O)c1ccc(C)cc1 (centres undefined)"
  CC50: "> 100 µM"
- compound: "Brc1ccc2[nH]c3c(NCCCN4CCOCC4)ncnc3c2c1"
  CC50: "> 98.7 µM"

###

System: Plasmodium falciparum
Test: NOVARTIS: Inhibition of Plasmodium falciparum W2 (drug-resistant) proliferation in erythrocyte-based infection assay
Format: functional, organism-based
Settings: Plasmodium falciparum, W2; read-out: EC50
measure: EC50

- compound: "Cc1ccc(N2C(N)=NC(N)=NC2(C)C)c(C)c1"
  experimental result: "> 12.5 µM"
- compound: "CC[n+]1c(/C=C2\\Sc3ccccc3N2CCO)ccc2cc(C)ccc21"
  experimental result: "> 0.248 µM"
- compound: "CCCCn1c(=N)c(C(=O)NC(C)c2ccccc2)cc2c(=O)n3cccc(C)c3nc21 (configuration not stated)"
  experimental result: "> 5.68 µM"
- compound: "CC1CCCCN1CCCNc1ncc(C(=O)NCCc2ccccc2)c(Nc2ccccc2)n1 (configuration not stated)"
  experimental result: "> 1.25 µM"
- compound: "COc1cccc2c1OCC(C(=O)Nc1ccc(C)cc1)=C2"
  experimental result: "> 12.5 µM"
- compound: "COc1ccc(C2C(C(=O)OC3CCCCC3)=C(C)Nc3nnnn32)cc1 (configuration not stated)"
  experimental result: "> 11.2 µM"
- compound: "CN(C)C(=O)CN(C)C(=O)c1cnc2scc(C(C)(C)C)n2c1=O"
  experimental result: "> 1.25 µM"

###

Tested on: Plasmodium falciparum
Assay: NOVARTIS: Inhibition of Plasmodium falciparum W2 (drug-resistant) proliferation in erythrocyte-based infection assay
Type: functional, organism-based
Conditions: Plasmodium falciparum, W2; read-out: EC50

- compound: "CC(C)CNc1nc(NCCCN2CCCC2)ncc1C(=O)NCCc1ccccc1"
  reported relation: ">"
  EC50 (nM): 1250
- compound: "CCOC(=O)C1CCN(C(c2cc3cc(OC)c(OC)cc3[nH]c2=O)c2nnnn2C(C)(C)C)CC1 (stereo not drawn)"
  reported relation: "="
  EC50 (nM): 567
- compound: "O=C(c1ccncc1)N1N=C(c2c(-c3ccccc3)c3cc(Br)ccc3[nH]c2=O)CC1c1ccccc1 (stereo not drawn)"
  reported relation: "="
  EC50 (nM): 1540
- compound: "COc1cccc(OCC(=O)NN=C(C)CC(=O)NCc2ccco2)c1"
  reported relation: "="
  EC50 (nM): 901
- compound: "CCOC(=O)c1cnc2ccccc2c1Nc1ccc(C(C)=O)cc1"
  reported relation: "="
  EC50 (nM): 386
- compound: "C=CC1CN2CCC1CC2[C@H](O)c1ccnc2ccc(OC)cc12 (stereo partly drawn)"
  reported relation: "="
  EC50 (nM): 45.3
- compound: "O=C1c2ccccc2C(=O)c2c1ccc1nonc21"
  reported relation: "="
  EC50 (nM): 88.6
- compound: "CC(C)(C)c1cc(Br)cc(C=NNc2ccc([N+](=O)[O-])cc2)c1O"
  reported relation: "="
  EC50 (nM): 761
- compound: "Cc1c(C#N)c2ccccc2n1CC(=O)NCCc1ccccc1"
  reported relation: "="
  EC50 (nM): 411
- compound: "COc1cccc(-c2ccc(O)c(CNCc3ccccc3OC)c2)n1"
  reported relation: "="
  EC50 (nM): 939
- compound: "C=CC[N+]1(CC#Cc2cccc3ccccc23)CCCCC1"
  reported relation: "="
  EC50 (nM): 396
- compound: "FC(F)(F)c1ccc(-c2nc(C34CC5CC(CC(C5)C3)C4)cs2)cc1"
  reported relation: "="
  EC50 (nM): 200
- compound: "COc1ccc(C2C(C(=O)Nc3cnc4ccccc4c3)c3ccccc3C(=O)N2Cc2ccc(F)cc2)cc1 (stereo not drawn)"
  reported relation: "="
  EC50 (nM): 941
- compound: "Cc1ncc([N+](=O)[O-])n1CCOC(=O)NC(Nc1ccc(Br)cc1)C(Cl)(Cl)Cl (stereo not drawn)"
  reported relation: "="
  EC50 (nM): 152
- compound: "CCCCCCN(C(=O)COCc1ccccc1)C(C)c1nc2ccccc2c(=O)n1-c1cccc(Cl)c1C (stereo not drawn)"
  reported relation: "="
  EC50 (nM): 596
- compound: "COCCNC(=O)C(c1ccc(C)cc1)N(Cc1ccccc1)C(=O)CCC(=O)Nc1nccs1 (stereo not drawn)"
  reported relation: "="
  EC50 (nM): 1720
- compound: "NCCCCCCNc1ccnc2cc(Cl)ccc12"
  reported relation: "="
  EC50 (nM): 132
- compound: "O=C(COC(c1cccs1)c1cccnc1Cl)N1CCN(C(=O)Nc2ccccc2)CC1 (stereo not drawn)"
  reported relation: "="
  EC50 (nM): 1420
